Can you tell me FRET efficiency for the items I'm about to list?
target entity: T1, CFP WT βA3-crystallin (UniProt P05813 1-215)
T1 construct: βA3-crystallin, wild type; Surmise: N1 vectors place the fluorescent protein at the C-terminus of the insert; Expressed as ~51 kDa protein; degraded products were also seen on blots; also called CFP βA3-crystallin; βA3- CFP; source: HeLa, transfected, in live cells
procedure text: FRET or BRET; FLIM-FRET in live HeLa cells co-transfected with CFP βA3-crystallin (donor) and YFP-tagged acceptors; donor life-time after 405 nm pulsed excitation; E = 1-TFRET/TCFP with TCFP 2.8 ns; 5-6 cells from 3 samples
condition summary: partners not purified
One number for each entry, in %.

// worked examples, FRET efficiency included
GPRKQVSGPERTIPITREEKPAVTAAPKK (domain or fragment, UniProt P02511 147-175, looked up, αB-crystallin C-terminal extension, residues 147-175; also called αB CTE-YFP; source: HeLa, transfected, in live cells) [YFP αB CTE (C-terminal extension of αB-crystallin, 147–175 amino acids)]: 14
YFP αB NTD (N-terminal domain of αB-crystallin, 1–64 amino acids) (domain or fragment, UniProt P02511 1-64, looked up, αB-crystallin N-terminal domain, residues 1-64; also called αB NTD-YFP; source: HeLa, transfected, in live cells) MDIAIHHPWIRRPFFPFHSPSRLFDQFFGEHLLESDLFPTSTSLSPFYLRPPSFLRAPSWFDTG: 32
YFP αB N78D crystallin (natural protein, UniProt P02511 1-175, looked up, αB-crystallin N78D, made by site-directed mutagenesis of the pZS Yellow1-N1 construct of αB-crystallin; Same limits as m12; source: HeLa, transfected, in live cells) MDIAIHHPWIRRPFFPFHSPSRLFDQFFGEHLLESDLFPTSTSLSPFYLRPPSFLRAPSWFDTGLSEMRLEKDRFSVDLDVKHFSPEELKVKVLGDVIEVHGKHEERQDEHGFISREFHRKYRIPADVDPLTITSSLSSDGVLTVNGPRKQVSGPERTIPITREEKPAVTAAPKK: 36
YFP WT αB-crystallin (natural protein, UniProt P02511 1-175, looked up, αB-crystallin, wild type, in pZS Yellow1-N1; Surmise: whole αB-crystallin (1-175, as the domain limits imply) with the fluorescent protein at the C-terminus (N1 vector); Expressed as ~46 kDa protein; also called WT YFP αB-crystallin; YFP αB; source: HeLa, transfected, in live cells) MDIAIHHPWIRRPFFPFHSPSRLFDQFFGEHLLESDLFPTSTSLSPFYLRPPSFLRAPSWFDTGLSEMRLEKDRFSVNLDVKHFSPEELKVKVLGDVIEVHGKHEERQDEHGFISREFHRKYRIPADVDPLTITSSLSSDGVLTVNGPRKQVSGPERTIPITREEKPAVTAAPKK: 18

Fill in FRET efficiency for each of the 2 binders listed.
1. YFP αB N146D crystallin (natural protein, UniProt P02511 1-175, looked up, αB-crystallin N146D, made by site-directed mutagenesis of the pZS Yellow1-N1 construct of αB-crystallin; Same limits as m12; source: HeLa, transfected, in live cells) MDIAIHHPWIRRPFFPFHSPSRLFDQFFGEHLLESDLFPTSTSLSPFYLRPPSFLRAPSWFDTGLSEMRLEKDRFSVNLDVKHFSPEELKVKVLGDVIEVHGKHEERQDEHGFISREFHRKYRIPADVDPLTITSSLSSDGVLTVDGPRKQVSGPERTIPITREEKPAVTAAPKK
2. YFP αB CD (core domain of αB-crystallin, 65–146 amino acids) (domain or fragment, UniProt P02511 65-146, looked up, αB-crystallin core domain, residues 65-146; also called αB CD-YFP; source: HeLa, transfected, in live cells) LSEMRLEKDRFSVNLDVKHFSPEELKVKVLGDVIEVHGKHEERQDEHGFISREFHRKYRIPADVDPLTITSSLSSDGVLTVN

Response:
22
14
